- Test system: Huh-7
- Experiment Description: Cell proliferation assay
- Format: cell-based, Homo sapiens
- Recorded Conditions: Homo sapiens; Huh-7, liver, hepatocellular carcinoma, 72 hours
Measure: IC50

{"columns": ["Molecule", "Measure", "Reported Result"],
 "data": [
  ["CCN1CCN(Cc2ccc(Nc3ncc(F)c(-c4cc(F)c5nc(C)n(C(C)C)c5c4)n3)nc2)CC1 [Abemaciclib, abemaciclib, reference compound]", "IC50", "75 nM"]
]}

* * *

- Tested on: MDA-MB-468
- Experiment Description: Cell proliferation assay
- Assay type: cell-based, Homo sapiens
- Recorded Conditions: Homo sapiens; MDA-MB-468, breast carcinoma, 72 hours

{"columns": ["Molecule", "IC50 / nM"],
 "data": [
  ["CCN1CCN(Cc2ccc(Nc3ncc(F)c(-c4cc(F)c5nc(C)n(C(C)C)c5c4)n3)nc2)CC1 [Abemaciclib, abemaciclib, reference compound]", 1250]
]}
